Source of measurements: patent US10526357B2

viability at 100 µM by entry:
System: H460 non small lung carcinoma cells
Assay: CellTiter Glo (CTG) cell viability assay, in vitro cell killing, H460
Format: cell-based
Conditions: Homo sapiens, NCI-H460, 100 μM, 24 h treatment, 0.5% serum and 0.05% DMSO, relative to untreated control, read-out: % avg live cells @ 100 μM (% Viable Cells Remaining)
Write down the numeric answer in % and omit the unit.

The examples below pair each entry with its known result.
>  <Compound>
O=S(=O)(O)CCCCC(CCSCc1ccccc1)SCc1ccccc1 (stereo not drawn) [E]

>  <Endpoint Unit>
%

>  <viability at 100 µM>
0.3

$$$$
>  <Compound>
O=C(O)CCOCC(CCSCc1ccccc1)SCc1ccccc1 (stereo not drawn) [G]

>  <Endpoint Unit>
%

>  <viability at 100 µM>
37.6

$$$$
>  <Compound>
CCCCCCC(CCSCc1ccccc1)SCc1ccccc1 (stereo not drawn) [A]

>  <Endpoint Unit>
%

>  <viability at 100 µM>
70

$$$$
>  <Compound>
N#CCCCCC(CCSCc1ccccc1)SCc1ccccc1 (stereo not drawn) [C]

>  <Endpoint Unit>
%

>  <viability at 100 µM>
27.1

$$$$
>  <Compound>
c1ccc(CSCCC(CCCCc2nn[nH]n2)SCc2ccccc2)cc1 (stereo not drawn) [D]

>  <Endpoint Unit>
%

>  <viability at 100 µM>
2.7

$$$$

Next compound, please.
Query: Please tell me: viability at 100 µM of COCCCCCC(CCSCc1ccccc1)SCc1ccccc1 (stereo not drawn) [B] , system H460 non small lung carcinoma cells?
Result: 67
